meta.source: patent US4465685A

tgt: lipoxygenase
experimentalDetails: enzyme assay (Blackwell and Flower), inhibition of lipoxygenase
experimentalContext: read-out: ED50 Lipoxygenase
endpoint: pIC50
Remember the convention: pIC50 equals -log10 of concentration in molar.

Solved cases (5 shown):
[[record]]
compound = "CNC(=S)NC1=NN(c2ccc3ccccc3c2)CC1 [Example 10]"
tgt = "lipoxygenase"
measurednumber = 6.00

[[record]]
compound = "CNC(=S)NC1=NN(c2cccc(C(F)(F)F)c2)CC1 [Example 3]"
tgt = "lipoxygenase"
measurednumber = 6.00

[[record]]
compound = "CN=C(NC1=NN(c2ccc3ccccc3c2)CC1)SC [Example 17]"
tgt = "lipoxygenase"
measurednumber = 6.00

[[record]]
compound = "CNC(=S)NC1=NN(c2ccccc2Cl)CC1 [Example 14]"
tgt = "lipoxygenase"
measurednumber = 5.00

[[record]]
compound = "CNC(=O)NC1=NN(c2cccc(C(F)(F)F)c2)CC1 [Example 2]"
tgt = "lipoxygenase"
measurednumber = 5.52


Query: Look up pIC50: CCCCNC(=S)NC1=NN(c2cccc(C(F)(F)F)c2)CC1 [Example 8]
Response: 5.00

Query: Likewise for CNC(=S)NC1=NN(c2ccc(Cl)cc2)CC1 [Example 6] ?
Response: 5.52

Query: Would you kindly repeat that for CN=C(NC1=NN(c2ccc(Cl)cc2)CC1)SC [Example 9] ?
Response: 5.00

Query: For CNC(=S)NC1=NN(c2cnc3ccccc3c2)CC1 [Example 13] then?
Response: 5.00

Query: Same lookup for CN=C(NC1=NN(c2cccc(C(F)(F)F)c2)CC1)SC [Example 5, monohydrate] , please.
Response: 6.00

* * *

tgt: cyclo-oxygenase
experimentalDetails: enzyme assay (Blackwell and Flower), inhibition of cyclo-oxygenase
experimentalContext: read-out: ED50 Cyclo-oxygenase
Items are presented alongside their recorded IC50.
Give the value in nM but do not write nM after it.

Solved cases (4 shown):
[[record]]
molecule = "CNC(=S)NC1=NN(c2ccc3ccccc3c2)CC1"
readoutunits = "nM"
measurednumber = 250

[[record]]
molecule = "CN=C(NC1=NN(c2ccc3ccccc3c2)CC1)SC"
readoutunits = "nM"
measurednumber = 1000

[[record]]
molecule = "CNC(=S)NC1=NN(c2ccccc2Cl)CC1"
readoutunits = "nM"
measurednumber = 10000

[[record]]
molecule = "CNC(=O)NC1=NN(c2cccc(C(F)(F)F)c2)CC1"
readoutunits = "nM"
measurednumber = 3000


Query: Look at this molecule and give its reported IC50. CCCCNC(=S)NC1=NN(c2cccc(C(F)(F)F)c2)CC1
Response: 10000

Query: Request: CNC(=S)NC1=NN(c2cccc(C(F)(F)F)c2)CC1
Response: 1000

Query: How about CNC(=S)NC1=NN(c2ccc(Cl)cc2)CC1 ?
Response: 5000

Query: Consider next the molecule CN=C(NC1=NN(c2cccc(C(F)(F)F)c2)CC1)SC [Example 5, monohydrate] in the same way.
Response: 1000

Query: Another: O=C(NC1=NN(c2cccc(C(F)(F)F)c2)CC1)Nc1ccccc1
Response: 3000

Query: Another molecule: CNC(=S)NC1=NN(c2cnc3ccccc3c2)CC1
Response: 10000

Query: Next molecule: CN=C(NC1=NN(c2ccc(Cl)cc2)CC1)SC
Response: 10000
